B1: TPR 5TU (parent)
chain: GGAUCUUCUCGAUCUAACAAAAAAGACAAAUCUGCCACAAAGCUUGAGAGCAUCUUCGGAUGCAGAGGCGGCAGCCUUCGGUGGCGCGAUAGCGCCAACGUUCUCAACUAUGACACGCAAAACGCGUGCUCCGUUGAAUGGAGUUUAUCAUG

Variants of: B1
Assay: polymerase ribozyme fitness, log enrichment relative to wild type (log ratio); higher = more active; in vitro selection for triplet polymerase activity
Fewer inactive variants are shown than the library holds.
# polymerase ribozyme fitness (log ratio) listing for each entry below
No unit in the answer, please; the number alone is enough.

Would you please look over these solved cases?
>>> recorded_result("U55A C72U G83A")
-0.82
>>> recorded_result("U127G G136A")
-2.89
>>> recorded_result("U78C G92A")
-3.78
>>> recorded_result("U4C A19U G86U")
-2.06
>>> recorded_result("C5A U56A G58A C72U C87U U109G G136A U144C")
-3.93

So what's the measured polymerase ribozyme fitness (log ratio) for this one? A3G C85G
-3.16

So what's the measured polymerase ribozyme fitness (log ratio) for this one? G50A C96U
-1.47

So what's the measured polymerase ribozyme fitness (log ratio) for this one? A22U A49U
-0.913

So what's the measured polymerase ribozyme fitness (log ratio) for this one? A89C C105U
0.174
